The measurements presented in this section are drawn from ChEMBL document CHEMBL3286227.

Molecular target: Serine/threonine-protein kinase B-raf (Homo sapiens) (UniProt P15056)
Sequence (P15056 whole entry): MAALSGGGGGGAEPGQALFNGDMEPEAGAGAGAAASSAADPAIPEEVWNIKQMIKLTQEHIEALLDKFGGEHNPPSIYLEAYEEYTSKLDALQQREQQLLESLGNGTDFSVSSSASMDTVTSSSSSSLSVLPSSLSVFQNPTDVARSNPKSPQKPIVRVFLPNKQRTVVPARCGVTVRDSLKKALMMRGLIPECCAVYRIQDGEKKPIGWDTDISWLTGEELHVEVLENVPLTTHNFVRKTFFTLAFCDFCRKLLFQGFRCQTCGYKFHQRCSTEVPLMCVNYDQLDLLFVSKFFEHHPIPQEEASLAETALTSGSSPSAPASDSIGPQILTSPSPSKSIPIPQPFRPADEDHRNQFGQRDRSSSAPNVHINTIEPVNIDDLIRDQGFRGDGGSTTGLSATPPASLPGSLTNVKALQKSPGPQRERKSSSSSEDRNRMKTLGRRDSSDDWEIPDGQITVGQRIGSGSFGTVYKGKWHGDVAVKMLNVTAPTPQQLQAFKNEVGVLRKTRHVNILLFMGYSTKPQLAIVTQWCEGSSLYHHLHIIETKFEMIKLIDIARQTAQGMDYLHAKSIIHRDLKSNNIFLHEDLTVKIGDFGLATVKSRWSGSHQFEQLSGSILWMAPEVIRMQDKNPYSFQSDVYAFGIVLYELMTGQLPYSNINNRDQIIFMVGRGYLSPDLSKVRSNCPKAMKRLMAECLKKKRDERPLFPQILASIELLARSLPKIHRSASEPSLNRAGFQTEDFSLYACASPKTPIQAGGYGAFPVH
Test: Competitive binding to B-RAF kinase (unknown origin) at 100 nM to 100 uM after 60 to 120 mins by FRET analysis
The source made the active and inactive calls. The rule behind the calls is not given here.
assay_metric: Activity

Field: example entries. Status: answers known.
{"smiles_input": "CC(=O)Nc1cccc(Oc2ccc(NC(=N)Nc3ccc(Cl)c(C(F)(F)F)c3)cc2)c1", "target_of_assay": "Serine/threonine-protein kinase B-raf (Homo sapiens) (UniProt P15056)", "Activity": "inactive"}
{"smiles_input": "N=C(N)Nc1cccc(Nc2ccc(NC(=N)Nc3ccc(Cl)c(C(F)(F)F)c3)cc2)c1", "target_of_assay": "Serine/threonine-protein kinase B-raf (Homo sapiens) (UniProt P15056)", "Activity": "inactive"}
{"smiles_input": "N=C(N)Nc1cccc(Cc2ccc(NC(=N)Nc3ccc(Cl)c(C(F)(F)F)c3)cc2)c1", "target_of_assay": "Serine/threonine-protein kinase B-raf (Homo sapiens) (UniProt P15056)", "Activity": "inactive"}
{"smiles_input": "N=C(N)Nc1ccc(Cc2cccc(NC(=N)Nc3ccc(Cl)c(C(F)(F)F)c3)c2)cc1", "target_of_assay": "Serine/threonine-protein kinase B-raf (Homo sapiens) (UniProt P15056)", "Activity": "inactive"}
{"smiles_input": "N=C(N)Nc1cccc(C(=O)c2ccc(NC(=N)Nc3ccc(Cl)c(C(F)(F)F)c3)cc2)c1", "target_of_assay": "Serine/threonine-protein kinase B-raf (Homo sapiens) (UniProt P15056)", "Activity": "inactive"}
{"smiles_input": "CC(=O)Nc1cccc(Nc2ccc(NC(=N)Nc3ccc(Cl)c(C(F)(F)F)c3)cc2)c1", "target_of_assay": "Serine/threonine-protein kinase B-raf (Homo sapiens) (UniProt P15056)", "Activity": "inactive"}

Query: Which measured Activity value corresponds to Cl.N=C(N)Nc1ccc(Oc2cccc(NC(=N)Nc3ccc(Cl)c(C(F)(F)F)c3)c2)cc1 ?
Reply: inactive

Query: Any idea what its Activity is? The compound is N=C(N)Nc1cccc(Oc2ccc(NC(=N)Nc3ccc(Cl)c(C(F)(F)F)c3)cc2)c1
Reply: inactive
